test-summary: MTT cytotoxicity assay
Assay type: cell-based
measurement-conditions: human, lox melanoma cells, MTT, read-out: selectivity for blockade of fibronectin adhesion vs. cytotoxicity (MTT 1 hour)
experimental-readout: selectivity ratio at 1 h
Answers are plain numbers.

Task item: Name the reported selectivity ratio at 1 h value associated with the molecule COc1ccc(C2=C3CC4CCC(N4)C3c3ccccc32)cc1 (stereo not shown) [Compound B]
Reply: 19

---

System: LOX human melanoma cell adhesion to human vitronectin
test-summary: LOX cell adhesion to vitronectin
Type: cell-based
measurement-conditions: read-out: Vitronectin IC50
What pIC50 was measured for each of the following?
Numbers only, as −log10 of the molar value.

Quick batch: pIC50 for everything below.
1. CN1C2CCC1C1C(=C(c3ccccc3C(F)(F)F)c3ccccc31)C2 (stereo not shown) [Compound S]
2. CN1C2CCC1C1C(=C(c3ccc(Cl)cc3)c3ccccc31)C2 (stereo not shown) [C]
3. Cc1ccc(C2=C3CC4CCC(C3c3ccccc32)N4C)cc1 (stereo not shown) [J]
4. COc1ccc(C2=C3CC4CCC(N4)C3c3ccccc32)cc1 (stereo not shown) [Compound B]

Reply:
[4.69, 5.23, 4.89, 4.77]

---

Test system: pulmonary resistance
test-summary: Pulmonary Resistance in the Anesthetized Rat
Type: in vivo
measurement-conditions: 0.5 mpk, i.v.; mean of 5 animals; % decrease in pre-drug baseline resistance
experimental-readout: Pulmonary Resistance in Rats, % Inhibition (%)
One number for each entry, in %.

| compound | reported-value |
| --- | --- |
| CN1C2CCC1C1C(=C(c3ccc(Cl)c(C(F)(F)F)c3)c3ccccc31)C2 (stereo not drawn) | 33 |
| Cc1ccc(C2=C3CC4CCC(C3c3ccccc32)N4C)cc1 (stereo not drawn) | 35 |
| CN1C2CCC1C1C(=C(c3ccccc3)c3ccccc31)C2 (stereo not drawn) | 46 |
| COc1ccc2c(c1)C(c1ccccc1)C1=C2C2CCC(C1)N2 (stereo not drawn) | 2 |
| CN1C2CCC1C1=C(C2)C(c2ccc(F)cc2)c2ccccc21 (stereo not drawn) | 21 |

Attention now shifts to the item below.
Task item: Name the reported Pulmonary Resistance in Rats, % Inhibition value associated with the compound c1ccc(C2=C3CC4CCC(N4)C3c3ccccc32)cc1 (stereo not drawn)
Reply: 24

---

Please consider the recorded IC50 for ELAM-1 (Homo sapiens, UniProt P16581) in what follows.

| compound | target | experimental-readout | reported-value |
| --- | --- | --- | --- |
| Cc1ccc(C2=C3CC4CCC(C3c3ccccc32)N4C)cc1 (centres unmarked) | ELAM-1 (Homo sapiens, UniProt P16581) | IC50 | > 50 µM |
| CSc1ccc(C2=C3CC4CCC(C3c3ccccc32)N4C)cc1 (centres unmarked) | ELAM-1 (Homo sapiens, UniProt P16581) | IC50 | > 50 µM |
| CN1C2CCC1C1C(=C(c3ccc(Cl)cc3)c3ccccc31)C2 (centres unmarked) | ELAM-1 (Homo sapiens, UniProt P16581) | IC50 | > 50 µM |
| COc1ccc(C2=C3CC4CCC(N4)C3c3ccccc32)cc1 (centres unmarked) | ELAM-1 (Homo sapiens, UniProt P16581) | IC50 | > 50 µM |

Attention now shifts to the item below.
Task item: State its IC50 on ELAM-1 (Homo sapiens, UniProt P16581): CN1C2CCC1C1C(=C(c3ccc(Cl)cc3)c3cc(F)ccc31)C2 (centres unmarked)
Sequence (P16581 22-610): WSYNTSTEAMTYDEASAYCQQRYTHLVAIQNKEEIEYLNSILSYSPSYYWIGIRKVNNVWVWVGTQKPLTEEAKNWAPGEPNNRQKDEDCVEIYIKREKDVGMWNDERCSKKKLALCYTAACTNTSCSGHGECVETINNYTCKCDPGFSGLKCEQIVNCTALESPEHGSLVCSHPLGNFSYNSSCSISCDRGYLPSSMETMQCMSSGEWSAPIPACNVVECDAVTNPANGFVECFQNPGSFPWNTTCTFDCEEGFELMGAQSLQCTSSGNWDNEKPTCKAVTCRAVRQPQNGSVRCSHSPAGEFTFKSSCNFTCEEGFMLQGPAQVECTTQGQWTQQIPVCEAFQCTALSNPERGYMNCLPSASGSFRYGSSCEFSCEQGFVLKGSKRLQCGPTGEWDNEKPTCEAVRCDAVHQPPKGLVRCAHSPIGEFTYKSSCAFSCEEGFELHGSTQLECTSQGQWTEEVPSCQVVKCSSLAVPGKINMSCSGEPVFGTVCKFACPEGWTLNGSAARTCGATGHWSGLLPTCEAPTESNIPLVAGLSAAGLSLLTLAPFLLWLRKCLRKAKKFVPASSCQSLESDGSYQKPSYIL
Reply: 21.8 µM

---

What inhibition at 10 µM was measured for each of the following?
Tested on: LOX human melanoma cell adhesion to human fibronectin
test-summary: LOX melanoma cell adhesion to fibronectin
Type: cell-based
measurement-conditions: Homo sapiens, LOX, 10 μM; read-out: % Inhibition at 10 μM
One number for each entry, in %.

// below: answered compounds
| compound | units-label | inhibition at 10 µM |
| --- | --- | --- |
| CN1C2CCC1C1C(=C(c3cccc(F)c3)c3ccc(F)cc31)C2 (centres unmarked) [P] | % | -2.4 |
| CSc1ccc(C2(O)c3ccccc3C3C4CCC(CC32)N4C)cc1 (centres unmarked) [KK] | % | 7.2 |
| CN1C2CCC1C1C(=C(c3ccccc3C(F)(F)F)c3ccccc31)C2 (centres unmarked) [Compound S] | % | -4.4 |
| CN1C2CCC1C1C(=C(c3ccccc3)c3cc(F)ccc31)C2 (centres unmarked) [I] | % | 35.6 |

Task item: Name the reported inhibition at 10 µM value associated with the compound CN1C2CCC1C1C(=C(c3cccc(Cl)c3)c3ccccc31)C2 (centres unmarked) [D]
Reply: 56.5

---

test-summary: MTT cytotoxicity assay
Format: cell-based
measurement-conditions: human, lox melanoma cells, read-out: MTT 1 Hr LD50
experimental-readout: CC50 at 1 h (µM)
Give bare numbers, in µM.

| molecule | reported-value |
| --- | --- |
| Cc1ccc(C2=C3CC4CCC(C3c3ccccc32)N4C)cc1 (stereo not shown) [J] | 54.6 |
| CN1C2CCC1C1C(=C(c3ccc(Cl)cc3)c3ccccc31)C2 (stereo not shown) [C] | 95.1 |

Quick batch: CC50 at 1 h for everything below.
1. CSc1ccc(C2=C3CC4CCC(C3c3ccccc32)N4C)cc1 (stereo not shown) [F]
2. COc1ccc(C2=C3CC4CCC(N4)C3c3ccccc32)cc1 (stereo not shown) [Compound B]

Reply:
51.7
97.6

---

What CC50 at 2 h was measured for each of the following?
test-summary: Calcein cytotoxicity assay
Type: cell-based
measurement-conditions: human, lox melanoma cells; 2 hours, calcein AM assay; read-out: 2 Hr Tox LD50
Include the unit right after the number.

| compound | CC50 at 2 h |
| --- | --- |
| CN1C2CCC1C1C(=C(c3cccc(F)c3)c3ccccc31)C2 (stereo not shown) | 72 µM |
| CN1C2CCC1C1C(=C(c3ccccc3)c3ccccc31)C2 (stereo not shown) | 135 µM |
| CN1C2CCC1C1C(=C(c3ccccc3)c3ccc(F)cc31)C2 (stereo not shown) | 39.8 µM |

Attention now shifts to the item below.
Task item: Name the reported CC50 at 2 h value associated with the compound CN1C2CCC1C1C(=C(c3ccc(Cl)c(C(F)(F)F)c3)c3ccccc31)C2 (stereo not shown)
Reply: 23.8 µM

---

Tested on: LOX human melanoma cell adhesion to human fibronectin
test-summary: LOX melanoma cell adhesion to fibronectin
Assay type: cell-based
measurement-conditions: Homo sapiens, LOX, 50 μM; read-out: % Inhibition at 50 μM
Assign class by inhibition at 50 µM: not lower than 20% means Yes; lower than 20% means No.

| compound | target | class |
| --- | --- | --- |
| COc1ccc2c(c1)C1=C(CC3CCC1N3C)C2c1ccccc1 (centres unmarked) | LOX human melanoma cell adhesion to human fibronectin | Yes |
| CN1C2CCC1C1C(=C(c3ccc(Cl)c(C(F)(F)F)c3)c3ccccc31)C2 (centres unmarked) | LOX human melanoma cell adhesion to human fibronectin | Yes |
| COc1ccc(C2(O)c3c(Cl)cccc3C3C4CCC(CC32)N4C)cc1 (centres unmarked) | LOX human melanoma cell adhesion to human fibronectin | No |
| CN1C2CCC1C1C(=C(c3ccc(F)cc3)c3cc(Cl)ccc31)C2 (centres unmarked) | LOX human melanoma cell adhesion to human fibronectin | Yes |
| c1ccc(C2=C3CC4CCC(N4)C3c3ccccc32)cc1 (centres unmarked) | LOX human melanoma cell adhesion to human fibronectin | Yes |
| CN1C2CCC1C1c3cc(Cl)ccc3C(O)(c3ccccc3)C1C2 (centres unmarked) | LOX human melanoma cell adhesion to human fibronectin | No |

Task item: Entry COc1ccc2c(c1)C1C3CCC(CC1C2(O)c1ccccc1)N3C (centres unmarked) : is its inhibition at 50 µM no less than 20%?
Reply: No

---

Test system: LOX human melanoma cell adhesion to human collagen I
test-summary: LOX cell adhesion to collagen I
Assay type: cell-based
measurement-conditions: read-out: Collagen I IC50
experimental-readout: IC50 (µM)
Give bare numbers, in µM.

// below: answered compounds
| compound | reported-value |
| --- | --- |
| CN1C2CCC1C1C(=C(c3ccc(Cl)cc3)c3ccccc31)C2 (stereo not shown) [C] | 4 |
| CN1C2CCC1C1C(=C(c3ccccc3C(F)(F)F)c3ccccc31)C2 (stereo not shown) [Compound S] | 11.6 |
| Cc1ccc(C2=C3CC4CCC(C3c3ccccc32)N4C)cc1 (stereo not shown) [J] | 4.5 |

Attention now shifts to the item below.
Task item: Name the reported IC50 value associated with the compound COc1ccc(C2=C3CC4CCC(N4)C3c3ccccc32)cc1 (stereo not shown) [Compound B]
Reply: 6.7

---

What Pulmonary Resistance in Rats, % Inhibition was measured for each of the following?
Tested on: pulmonary resistance
test-summary: Pulmonary Resistance in the Anesthetized Rat
Format: in vivo
measurement-conditions: 0.5 mpk, i.v.; mean of 5 animals; % decrease in pre-drug baseline resistance
Answers are plain numbers, in %.

| compound | units-label | reported-value |
| --- | --- | --- |
| CN1C2CCC1C1C(=C(c3ccc(F)cc3)c3ccccc31)C2 (centres unmarked) | % | 34 |
| COc1ccc(C2=C3CC4CCC(C3c3ccccc32)N4C)cc1 (centres unmarked) | % | 26 |
| COc1ccc(C2C3=C(c4ccccc42)C2CCC(C3)N2C)cc1OC (centres unmarked) | % | 6 |
| CN1C2CCC1C1C(=C(c3cccc(F)c3)c3ccc(F)cc31)C2 (centres unmarked) | % | 12 |

Attention now shifts to the item below.
Task item: Name the reported Pulmonary Resistance in Rats, % Inhibition value associated with the compound CN1C2CCC1C1C(=C(c3ccc(F)cc3)c3cc(F)ccc31)C2 (centres unmarked)
Reply: 20
